system: E. coli CSH(RE45); experiment: microbe, parasite or virus in culture; type: cell-based; conditions: Escherichia coli, 16 h, read-out: Minimum Inhibitory Concentration (MIC), *E. coli CSH(RE45), lactamase-producing strain; 10^6 CFU/ml
Counter-ions that a name gives are not always drawn.
Please respond with 1 (yes) when measured MIC is strictly beneath 0.8 mg/L, and with 0 (no) in all other cases.

>>> label("C=CCON=C(C(=O)NC1C(=O)N2C(C(=O)O)=C(CSc3nc(-c4ccc(O)c(O)c4)cs3)CSC12)c1csc(N)n1 (centres unmarked) [Ex. 42]")
"1 (yes)"
>>> label("CC(C)(O/N=C(\\C(=O)N[C@@H]1C(=O)N2C(C(=O)O)=C(CSc3nnc(-c4ccc(O)c(O)c4)s3)CS[C@H]12)c1csc(N)n1)C(=O)O [Ex. 34]")
"1 (yes)"
>>> label("CO/N=C(\\C(=O)N[C@@H]1C(=O)N2C(C(=O)O)=C(CSc3nnc(-c4ccc(O)cc4)o3)CS[C@H]12)c1csc(N)n1 [compound 2, reference compound]")
"1 (yes)"
>>> label("CC(C)(O/N=C(\\C(=O)N[C@@H]1C(=O)N2C(C(=O)O)=C(CSc3nnc(-c4ccc(O)c(O)c4)o3)CS[C@H]12)c1csc(N)n1)C(=O)O [Ex. 11]")
"0 (no)"
>>> label("Nc1nc(/C(=N/OC(C(=O)O)c2ccc(O)c(O)c2)C(=O)N[C@@H]2C(=O)N3C(C(=O)O)=C(CSc4nnc(-c5ccc(O)c(O)c5)o4)CS[C@H]23)cs1 (some centres unmarked) [compound 16]")
"0 (no)"
>>> label("CCO/N=C(\\C(=O)N[C@@H]1C(=O)N2C(C(=O)O)=C(CSc3ncc(-c4ccc(OC(C)=O)c(OC(C)=O)c4)o3)CS[C@H]12)c1csc(N)n1 [compound 67]")
"1 (yes)"
>>> label("CCON=C(C(=O)NC1C(=O)N2C(C(=O)O)=C(CSc3nc(C(=O)O)c(-c4ccc(O)c(O)c4)s3)CSC12)c1csc(N)n1 (centres unmarked) [compound 53]")
"1 (yes)"
>>> label("CO/N=C(\\C(=O)N[C@@H]1C(=O)N2C(C(=O)O)=C(CSc3nnc(-c4ccccc4)o3)CS[C@H]12)c1csc(N)n1 [compound 1, trifluoroacetate, reference compound]")
"1 (yes)"

* * *

tested on: P. vulgaris No. 33; assay: in vitro antibacterial activity, agar plate dilution method (MIC); type: cell-based; details: Proteus vulgaris, NO.33, 16 h, read-out: Minimum Inhibitory Concentration (MIC), *P. vulgaris No. 33, lactamase-producing strain; 10^6 CFU/ml
PROPERTY_MEASURED: MIC

>>> result("Nc1nc(/C(=N/OC(C(=O)O)c2ccccc2)C(=O)N[C@@H]2C(=O)N3C(C(=O)O)=C(CSc4nnc(-c5ccc(O)c(O)c5)o4)CS[C@H]23)cs1 (stereo partly drawn) [Ex. 15]")
"0.0125 µg/mL"
>>> result("CON=C(C(=O)NC1C(=O)N2C(C(=O)O)=C(CSc3ncc(-c4ccc(O)c(O)c4)o3)CSC12)c1csc(N)n1 (stereo not drawn) [Ex. 62]")
"0.025 µg/mL"
>>> result("CCO/N=C(\\C(=O)N[C@@H]1C(=O)N2C(C(=O)O)=C(CSc3ncc(-c4ccc(OC(C)=O)c(OC(C)=O)c4)o3)CS[C@H]12)c1csc(N)n1 [compound 67]")
"0.025 µg/mL"

* * *

tested on: Ps. aeruginosa AKR17; experiment: in vitro antibacterial activity, agar plate dilution method (MIC); assay type: cell-based, Pseudomonas aeruginosa; conditions: Pseudomonas aeruginosa, 16 h; Ps. aeruginosa AKR17; 10^6 CFU/ml; read-out: Minimum Inhibitory Concentration (MIC)
Documented MIC across a set of molecules
PROPERTY_MEASURED: MIC

>>> result("CC(C)(O/N=C(\\C(=O)N[C@@H]1C(=O)N2C(C(=O)O)=C(CSc3nc(-c4ccc(O)cc4)cs3)CS[C@H]12)c1csc(N)n1)C(=O)O [compound 12, reference compound]")
"> 100 µg/mL"
>>> result("CO/N=C(\\C(=O)N[C@@H]1C(=O)N2C(C(=O)O)=C(CSc3ncc(-c4ccc(O)cc4)o3)CS[C@H]12)c1csc(N)n1 [compound 23, reference compound]")
"> 100 µg/mL"
>>> result("CO/N=C(\\C(=O)N[C@@H]1C(=O)N2C(C(=O)O)=C(CSc3nc(-c4ccc(O)cc4)c(CC(=O)O)s3)CS[C@H]12)c1csc(N)n1 [compound 17, reference compound]")
"> 100 µg/mL"
>>> result("CO/N=C(\\C(=O)N[C@@H]1C(=O)N2C(C(=O)O)=C(CSc3nnc(-c4ccc(O)c(O)c4)o3)CS[C@H]12)c1csc(N)n1 [Ex. 1]")
"> 100 µg/mL"
>>> result("CON=C(C(=O)NC1C(=O)N2C(C(=O)O)=C(CSc3nc(-c4ccc(OC(C)=O)c(OC(C)=O)c4)cs3)CSC12)c1csc(N)n1 (stereo not shown) [compound 40]")
"< 100 µg/mL"
>>> result("CC(=O)Oc1ccc(-c2nc(SCC3=C(C(=O)O)N4C(=O)[C@@H](NC(=O)/C(=N\\OC(C)(C)C(=O)O)c5csc(N)n5)[C@H]4SC3)sc2CC(=O)O)cc1 [compound 20, reference compound]")
"> 100 µg/mL"
>>> result("CCO/N=C(\\C(=O)N[C@@H]1C(=O)N2C(C(=O)O)=C(CSc3nnc(-c4ccc(OC(C)=O)c(OC(C)=O)c4)o3)CS[C@H]12)c1csc(N)n1 [Ex. 6]")
"> 100 µg/mL"
>>> result("CO/N=C(\\C(=O)N[C@@H]1C(=O)N2C(C(=O)O)=C(CSc3nnc(-c4ccc(O)cc4)s3)CS[C@H]12)c1csc(N)n1 [compound 7, reference compound]")
"> 100 µg/mL"
>>> result("Nc1nc(/C(=N/OCc2ccc(O)c(O)c2)C(=O)N[C@@H]2C(=O)N3C(C(=O)O)=C(CSc4nnc(-c5ccc(O)c(O)c5)o4)CS[C@H]23)cs1 [Ex. 14]")
"> 100 µg/mL"
>>> result("CO/N=C(\\C(=O)N[C@@H]1C(=O)N2C(C(=O)O)=C(CSc3nc(-c4ccccc4)cs3)CS[C@H]12)c1csc(N)n1 [compound 9, reference compound]")
"> 100 µg/mL"
>>> result("CO/N=C(\\C(=O)N[C@@H]1C(=O)N2C(C(=O)O)=C(CSc3nc(-c4ccc(OC(C)=O)cc4)c(CC(=O)O)s3)CS[C@H]12)c1csc(N)n1 [compound 18, reference compound]")
"> 100 µg/mL"
>>> result("CO/N=C(\\C(=O)N[C@@H]1C(=O)N2C(C(=O)O)=C(CSc3ncc(-c4ccccc4)o3)CS[C@H]12)c1csc(N)n1 [compound 21, reference compound]")
"> 100 µg/mL"
>>> result("C#CCON=C(C(=O)NC1C(=O)N2C(C(=O)O)=C(CSc3nc(C(=O)O)c(-c4ccc(O)c(O)c4)s3)CSC12)c1csc(N)n1 (stereo not shown) [Ex. 56]")
"100 µg/mL"
>>> result("CC(C)(O/N=C(\\C(=O)N[C@@H]1C(=O)N2C(C(=O)O)=C(CSc3nc(C(=O)O)c(-c4ccccc4)s3)CS[C@H]12)c1csc(N)n1)C(=O)O [compound 14, reference compound]")
"> 100 µg/mL"
>>> result("CO/N=C(\\C(=O)N[C@@H]1C(=O)N2C(C(=O)O)=C(CSc3nc(-c4ccc(O)cc4)cs3)CS[C@H]12)c1csc(N)n1 [compound 10, reference compound]")
"> 100 µg/mL"
>>> result("CO/N=C(\\C(=O)N[C@@H]1C(=O)N2C(C(=O)O)=C(CSc3nnc(-c4ccc(OC(C)=O)c(OC(C)=O)c4)o3)CS[C@H]12)c1csc(N)n1 [Ex. 4]")
"> 100 µg/mL"
>>> result("CON=C(C(=O)NC1C(=O)N2C(C(=O)O)=C(CSc3nc(-c4ccc(O)c(O)c4)c(CC(=O)O)s3)CSC12)c1csc(N)n1 (stereo not shown) [compound 58]")
"> 100 µg/mL"
>>> result("CO/N=C(\\C(=O)N[C@@H]1C(=O)N2C(C(=O)O)=C(CSc3nc(-c4ccccc4)c(CC(=O)O)s3)CS[C@H]12)c1csc(N)n1 [compound 15, reference compound]")
"> 100 µg/mL"
>>> result("C=CCO/N=C(\\C(=O)N[C@@H]1C(=O)N2C(C(=O)O)=C(CSc3nnc(-c4ccc(O)c(O)c4)s3)CS[C@H]12)c1csc(N)n1 [compound 30]")
"25 µg/mL"
>>> result("Nc1nc(C(=NOC2CCCC2)C(=O)NC2C(=O)N3C(C(=O)O)=C(CSc4nc(C(=O)O)c(-c5ccc(O)c(O)c5)s4)CSC23)cs1 (stereo not shown) [Ex. 54]")
"> 100 µg/mL"
>>> result("CC(C)(O/N=C(\\C(=O)N[C@@H]1C(=O)N2C(C(=O)O)=C(CSc3nnc(-c4ccc(O)cc4)s3)CS[C@H]12)c1csc(N)n1)C(=O)O [compound 8, reference compound]")
"> 100 µg/mL"
>>> result("C=CCON=C(C(=O)NC1C(=O)N2C(C(=O)O)=C(CSc3nc(-c4ccc(O)c(O)c4)cs3)CSC12)c1csc(N)n1 (stereo not shown) [Ex. 42]")
"100 µg/mL"
